Measured IC50 of individual entries
target: Transient receptor potential cation channel subfamily V member 4 (Rattus norvegicus, UniProt Q9ERZ8); test: Antagonist activity at recombinant rat TRPV4 expressed in HEK293 cells assessed as inhibition of 4alphaPDD-induced intracellular calcium accumulation preincubated for 5 mins followed by 4alphaPDD addition by Fluo-4-AM probe-based spectrofluorimetric assay
Sequence (Q9ERZ8 whole entry): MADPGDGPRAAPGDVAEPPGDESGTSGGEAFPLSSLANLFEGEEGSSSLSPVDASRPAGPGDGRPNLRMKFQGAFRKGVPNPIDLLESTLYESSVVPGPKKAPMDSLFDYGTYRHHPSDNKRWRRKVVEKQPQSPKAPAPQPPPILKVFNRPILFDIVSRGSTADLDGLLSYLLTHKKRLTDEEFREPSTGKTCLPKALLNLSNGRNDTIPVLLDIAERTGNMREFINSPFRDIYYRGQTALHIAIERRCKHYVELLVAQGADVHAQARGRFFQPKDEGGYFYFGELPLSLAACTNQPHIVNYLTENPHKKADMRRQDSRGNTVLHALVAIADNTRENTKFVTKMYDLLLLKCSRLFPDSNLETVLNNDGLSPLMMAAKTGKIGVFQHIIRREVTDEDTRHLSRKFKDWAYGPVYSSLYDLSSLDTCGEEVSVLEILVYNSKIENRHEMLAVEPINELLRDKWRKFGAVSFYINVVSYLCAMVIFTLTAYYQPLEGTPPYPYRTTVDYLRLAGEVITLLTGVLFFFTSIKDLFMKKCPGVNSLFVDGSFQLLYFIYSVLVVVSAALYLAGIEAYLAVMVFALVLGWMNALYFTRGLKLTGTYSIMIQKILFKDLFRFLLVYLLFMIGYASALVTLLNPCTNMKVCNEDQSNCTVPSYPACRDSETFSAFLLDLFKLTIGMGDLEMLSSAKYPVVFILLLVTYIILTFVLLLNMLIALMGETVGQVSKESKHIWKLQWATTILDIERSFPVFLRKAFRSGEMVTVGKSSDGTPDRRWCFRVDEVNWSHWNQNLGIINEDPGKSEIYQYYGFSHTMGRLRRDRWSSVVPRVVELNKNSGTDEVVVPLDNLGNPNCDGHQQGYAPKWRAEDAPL
quantity-kind: IC50 (µM)

| compound | quantity-kind | unit-of-measure | qualifier-sign | measured |
| --- | --- | --- | --- | --- |
| COc1cc2c(cc1OC)[C@H](c1ccccc1)N(C(=O)N1CCc3cc(OC)c(OC)cc3[C@@H]1c1ccccc1)CC2 (racemic) | IC50 | µM | = | 82.6 |
| COc1cc2c(cc1OC)[C@H](c1ccc(F)cc1)N(C(=O)N1CCc3cc(OC)c(OC)cc3[C@@H]1c1ccc(F)cc1)CC2 (racemic) | IC50 | µM | = | 96.2 |
| COc1cc2c(cc1OC)[C@H](c1ccc(Cl)cc1)N(C(=O)N1CCc3cc(OC)c(OC)cc3[C@@H]1c1ccc(Cl)cc1)CC2 (racemic) | IC50 | µM | = | 81.5 |
| COc1cc(/C=C2\NC(=O)[C@@H]3Cc4c(OC)c(C)c(OC)c(OC)c4[C@@H](c4ccccc4)N3C2=O)c(OC)c(C)c1OC | IC50 | µM | > | 100 |

###

target: Transient receptor potential cation channel subfamily V member 1 (Homo sapiens, UniProt Q8NER1); test: Antagonist activity at recombinant human TRPV1 expressed in HEK293 cells assessed as inhibition of capsaicin-induced intracellular calcium accumulation preincubated for 5 mins followed by capsaicin addition by Fluo-4-AM probe-based spectrofluorimetric assay; format: cell-based
Sequence (Q8NER1 whole entry): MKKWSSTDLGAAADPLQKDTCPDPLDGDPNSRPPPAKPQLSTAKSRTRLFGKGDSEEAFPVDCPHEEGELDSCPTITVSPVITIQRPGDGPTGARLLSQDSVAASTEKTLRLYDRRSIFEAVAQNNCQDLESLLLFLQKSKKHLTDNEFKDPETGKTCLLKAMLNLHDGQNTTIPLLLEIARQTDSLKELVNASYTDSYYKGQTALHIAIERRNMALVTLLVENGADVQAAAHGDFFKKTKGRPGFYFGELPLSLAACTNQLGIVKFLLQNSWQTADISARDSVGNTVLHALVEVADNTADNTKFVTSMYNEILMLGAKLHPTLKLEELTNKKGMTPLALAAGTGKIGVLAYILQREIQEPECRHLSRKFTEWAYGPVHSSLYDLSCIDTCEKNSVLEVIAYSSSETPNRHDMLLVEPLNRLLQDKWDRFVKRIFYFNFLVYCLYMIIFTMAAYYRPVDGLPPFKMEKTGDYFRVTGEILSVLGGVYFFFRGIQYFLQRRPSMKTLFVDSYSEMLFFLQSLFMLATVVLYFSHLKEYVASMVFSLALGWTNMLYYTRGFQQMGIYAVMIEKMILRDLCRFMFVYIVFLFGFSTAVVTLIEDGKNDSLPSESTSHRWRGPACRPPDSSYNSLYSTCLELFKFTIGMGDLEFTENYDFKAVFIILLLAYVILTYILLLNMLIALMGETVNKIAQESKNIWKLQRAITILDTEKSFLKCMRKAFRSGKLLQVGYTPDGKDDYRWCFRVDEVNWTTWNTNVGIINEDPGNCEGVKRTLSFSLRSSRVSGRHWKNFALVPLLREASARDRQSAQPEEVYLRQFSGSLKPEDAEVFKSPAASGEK
Measured IC50 of individual entries

| molecule | IC50 |
| --- | --- |
| COc1cc2c(cc1OC)[C@H](c1ccc(F)cc1)N(C(=O)N1CCc3cc(OC)c(OC)cc3[C@@H]1c1ccc(F)cc1)CC2 (racemic) | 68.5 µM |
| COc1cc2c(cc1OC)[C@H](c1ccc(Cl)cc1)N(C(=O)N1CCc3cc(OC)c(OC)cc3[C@@H]1c1ccc(Cl)cc1)CC2 (racemic) | 49.7 µM |
| COc1cc(/C=C2\NC(=O)[C@@H]3Cc4c(OC)c(C)c(OC)c(OC)c4[C@@H](c4ccccc4)N3C2=O)c(OC)c(C)c1OC | 68.9 µM |
| COc1cc2c(cc1OC)[C@H](c1ccccc1)N(C(=O)N1CCc3cc(OC)c(OC)cc3[C@@H]1c1ccccc1)CC2 (racemic) | 53 µM |

###

Measured Activity of individual entries
biological target: Transient receptor potential cation channel subfamily M member 8 (Rattus norvegicus) (UniProt Q8R455); assay: Agonist activity at recombinant rat TRPM8 expressed in HEK293 cells assessed as increase in intracellular calcium accumulation by Fluo-4-AM probe-based spectrofluorimetric assay relative to ionomycin; format: cell-based
Sequence (Q8R455 whole entry, looked up): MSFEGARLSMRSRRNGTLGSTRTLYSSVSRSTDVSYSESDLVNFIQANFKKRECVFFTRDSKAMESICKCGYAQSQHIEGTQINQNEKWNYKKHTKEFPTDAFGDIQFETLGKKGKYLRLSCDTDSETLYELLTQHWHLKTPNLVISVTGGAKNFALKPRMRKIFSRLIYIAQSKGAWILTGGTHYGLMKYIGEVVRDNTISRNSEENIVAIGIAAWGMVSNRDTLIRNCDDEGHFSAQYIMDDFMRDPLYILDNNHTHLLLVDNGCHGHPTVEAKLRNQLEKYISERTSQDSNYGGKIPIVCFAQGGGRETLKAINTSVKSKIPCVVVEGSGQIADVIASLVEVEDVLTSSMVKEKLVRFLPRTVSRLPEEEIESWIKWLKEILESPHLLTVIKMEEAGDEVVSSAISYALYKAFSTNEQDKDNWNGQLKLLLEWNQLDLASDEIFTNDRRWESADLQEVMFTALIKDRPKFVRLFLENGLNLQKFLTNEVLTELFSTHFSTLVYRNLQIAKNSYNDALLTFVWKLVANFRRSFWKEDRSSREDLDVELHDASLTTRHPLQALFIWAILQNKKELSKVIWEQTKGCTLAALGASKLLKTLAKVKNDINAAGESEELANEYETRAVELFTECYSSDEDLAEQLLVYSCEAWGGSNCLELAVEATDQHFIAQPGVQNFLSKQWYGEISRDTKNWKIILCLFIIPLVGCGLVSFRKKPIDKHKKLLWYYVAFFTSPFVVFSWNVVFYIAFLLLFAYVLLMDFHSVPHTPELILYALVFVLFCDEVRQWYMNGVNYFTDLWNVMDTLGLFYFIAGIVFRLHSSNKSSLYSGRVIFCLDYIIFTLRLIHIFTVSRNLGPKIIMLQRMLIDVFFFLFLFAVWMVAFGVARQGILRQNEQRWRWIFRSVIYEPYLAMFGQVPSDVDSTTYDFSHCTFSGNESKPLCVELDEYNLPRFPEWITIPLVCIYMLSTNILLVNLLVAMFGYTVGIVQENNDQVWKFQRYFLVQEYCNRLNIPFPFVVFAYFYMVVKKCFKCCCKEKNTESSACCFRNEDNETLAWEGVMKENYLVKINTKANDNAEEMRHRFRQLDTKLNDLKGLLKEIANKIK

| molecule | unit-of-measure | Activity |
| --- | --- | --- |
| CCC1c2cc(OC)c(OC)cc2CCN1C(=O)NCCc1cc(OC)c(OC)cc1C(CC)S(=O)(=O)c1ccc(C)cc1 (centres undefined) | % | 15.3 |
| COc1cc(C[C@@H]2NC(=O)[C@@H]3Cc4c(OC)c(C)c(OC)c(OC)c4[C@H](/C=C/c4ccccc4)N3C2=O)c(OC)c(C)c1OC (racemic) | % | 26.6 |
| COc1cc2c(cc1OC)[C@H](c1ccc([N+](=O)[O-])cc1)N(C(=O)N1CCc3cc(OC)c(OC)cc3[C@@H]1c1ccc([N+](=O)[O-])cc1)CC2 (racemic) | % | 22.7 |
| COc1ccc(/C=C2\NC(=O)[C@@H]3Cc4cc(OC)c(OC)cc4[C@@H](c4ccccc4)N3C2=O)cc1OC | % | 14.7 |

Reference source for all entries: ChEMBL document CHEMBL4477204
